Let's look at some compounds and their measured pIC50.
Tested on: NCI-H1373 cells
Experiment: Inhibition on NCI-H1373 cell proliferation (Cell-Titer-Glo)
Type: cell-based
Settings: Homo sapiens, 144 h; NCI-H1373 cells, incubation for 6 days, Cell-Titer-Glo; read-out: NCI-H1373 cell proliferation inhibition IC50
pIC50: −log10 of the molar value.
PROPERTY NAME: pIC50

compound="O=C(NCCCC(Nc1cn[nH]c(=O)c1C(F)(F)F)C1CC1)c1cnc(-c2ncc(C(F)(F)F)s2)cn1 (stereo not shown)" property_name=pIC50 reported_value="< 5.52"
compound=O=C(NCCC[C@@H](Nc1cn[nH]c(=O)c1C(F)(F)F)C(=O)N1CC[C@H](F)C1)c1ccc(-c2ncc(C(F)(F)F)s2)cc1 property_name=pIC50 reported_value="5.52 to 6.00"
compound="CC(CCCNC(=O)c1ccc(-c2ncc(C(F)(F)F)s2)nc1)Nc1cn[nH]c(=O)c1C(F)(F)F (stereo not shown)" property_name=pIC50 reported_value="5.52 to 6.00"
compound="Cc1cnc(-c2cnc(C(=O)NCCCC(C)Nc3cc[nH]c(=O)c3C(F)(F)F)cn2)s1 (stereo not shown)" property_name=pIC50 reported_value="< 5.52"

* * *

Entries and their IC50 values follow.
Target: PARP2 (Homo sapiens, UniProt Q9UGN5)
Sequence (Q9UGN5 whole entry, species assumed): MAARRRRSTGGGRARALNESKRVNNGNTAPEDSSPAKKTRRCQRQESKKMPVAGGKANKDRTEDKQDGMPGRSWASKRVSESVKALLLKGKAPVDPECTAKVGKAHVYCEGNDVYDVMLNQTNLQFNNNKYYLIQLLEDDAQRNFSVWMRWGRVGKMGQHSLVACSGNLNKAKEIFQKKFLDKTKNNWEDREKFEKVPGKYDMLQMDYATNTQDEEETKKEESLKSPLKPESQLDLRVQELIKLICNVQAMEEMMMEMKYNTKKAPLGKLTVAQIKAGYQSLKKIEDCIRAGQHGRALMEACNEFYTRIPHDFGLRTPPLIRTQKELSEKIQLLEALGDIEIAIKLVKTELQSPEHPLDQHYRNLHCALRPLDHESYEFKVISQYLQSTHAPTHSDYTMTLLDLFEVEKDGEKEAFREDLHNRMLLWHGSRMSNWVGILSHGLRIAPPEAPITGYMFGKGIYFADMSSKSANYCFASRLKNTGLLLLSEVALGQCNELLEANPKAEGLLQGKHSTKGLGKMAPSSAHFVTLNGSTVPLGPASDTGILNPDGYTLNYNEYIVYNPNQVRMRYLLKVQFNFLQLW
Test: PARP2 in vitro enzyme activity inhibition (chemiluminescence assay)
Type: biochemical
Details: 5 nM of PARP2, method of test example 1; read-out: PARP2 activity inhibition IC50
PROPERTY NAME: IC50

compound="CC(CCCNC(=O)c1cnc(-c2ncc(C(F)(F)F)cn2)cn1)Nc1cn[nH]c(=O)c1C(F)(F)F (centres unmarked) [Example 4]" reported_value="3 to 10 nM"
compound="O=C(NCCC[C@@H](Nc1cn[nH]c(=O)c1C(F)(F)F)C(=O)NC1CCC1)c1ccc(-c2ncc(C(F)(F)F)s2)cc1 [Example 228]" reported_value="3 to 10 nM"
compound="O=C(NCCCC(Nc1cn[nH]c(=O)c1C(F)(F)F)C(=O)N1CCCC1)c1ccc(-c2ncc(C(F)(F)F)cn2)cc1 (centres unmarked) [Example 84]" reported_value="10 to 30 nM"
compound="CC1CN(C(=O)[C@@H](CCCNC(=O)c2ccc(-c3ncc(C(F)(F)F)s3)cc2)Nc2cn[nH]c(=O)c2C(F)(F)F)C1 [Example 233]" reported_value="< 3 nM"
compound="C[C@@H]1COCCN1C(=O)[C@@H](CCCNC(=O)c1ccc(-c2ncc(C(F)(F)F)s2)cc1)Nc1cn[nH]c(=O)c1C(F)(F)F [Example 238]" reported_value="10 to 30 nM"
compound="CCNC(=O)C(CCCNC(=O)c1ccc(-c2ncc(C(F)(F)F)s2)cc1)Nc1cn[nH]c(=O)c1C(F)(F)F (centres unmarked) [Example 231]" reported_value="3 to 10 nM"
compound="CC1(C#N)CN(C(=O)[C@@H](CCCNC(=O)c2ccc(-c3ncc(C(F)(F)F)s3)cc2)Nc2cn[nH]c(=O)c2C(F)(F)F)C1 [Example 247]" reported_value="30 to 100 nM"
compound="CC1(C)CN(C(=O)C(CCCNC(=O)c2cnc(-c3ncc(C(F)(F)F)cn3)cn2)Nc2cn[nH]c(=O)c2C(F)(F)F)C1 (centres unmarked) [Example 174]" reported_value="3 to 10 nM"
compound="CO[C@H]1CCN(C(=O)[C@@H](CCCNC(=O)c2ccc(-c3ncc(C(F)(F)F)s3)cc2)Nc2cn[nH]c(=O)c2C(F)(F)F)C1 [Example 237]" reported_value="3 to 10 nM"
compound="CN(C(=O)[C@@H](CCCNC(=O)c1ccc(-c2ncc(C(F)(F)F)s2)cc1)Nc1cn[nH]c(=O)c1C(F)(F)F)C1CC1 [Example 223]" reported_value="30 to 100 nM"
compound="O=C(NCCC[C@@H](Nc1cn[nH]c(=O)c1C(F)(F)F)C(=O)N1CC(Cl)C1)c1ccc(-c2ncc(C(F)(F)F)s2)cc1 [Example 224]" reported_value="10 to 30 nM"
compound="O=C(CCc1c[nH]c(=O)c(C(F)(F)F)c1N1CC2(CCC2)C1)Nc1ccc(-c2ncc(C(F)(F)F)s2)cn1 [Example 69]" reported_value="> 100 nM"
compound="CC1(F)CN(C(=O)[C@@H](CCCNC(=O)c2ccc(-c3ncc(C(F)(F)F)s3)cc2)Nc2cn[nH]c(=O)c2C(F)(F)F)C1 [Example 242]" reported_value="3 to 10 nM"
compound="O=C(NCCCC(Nc1cn[nH]c(=O)c1C(F)(F)F)C(=O)N1CCCC1)c1ccc(-c2ncc(C(F)(F)F)s2)cc1 (centres unmarked) [Example 86]" reported_value="3 to 10 nM"
compound="CC(C)(C)NC(=O)[C@@H](CCCNC(=O)c1ccc(-c2ncc(C(F)(F)F)s2)cc1)Nc1cn[nH]c(=O)c1C(F)(F)F [Example 221]" reported_value="3 to 10 nM"
compound="O=C(NCCC[C@@H](Nc1cn[nH]c(=O)c1C(F)(F)F)C(=O)Nc1ccccn1)c1ccc(-c2ncc(C(F)(F)F)s2)cc1 [Example 244]" reported_value="30 to 100 nM"
compound="CN(C(=O)[C@@H](CCCNC(=O)c1ccc(-c2ncc(C(F)(F)F)s2)cc1)Nc1cn[nH]c(=O)c1C(F)(F)F)C1CCC1 [Example 230]" reported_value="3 to 10 nM"
compound="N#CC1CCN(C(=O)[C@@H](CCCNC(=O)c2ccc(-c3ncc(C(F)(F)F)s3)cc2)Nc2cn[nH]c(=O)c2C(F)(F)F)CC1 [Example 243]" reported_value="3 to 10 nM"
compound="O=C(NCCc1n[nH]c(=O)c(C(F)(F)F)c1N1CC2(CCC2)C1)c1cnc(-c2ncc(C(F)(F)F)cn2)cn1 [Example 166]" reported_value="> 100 nM"
compound="O=C(NCCCC(Nc1cn[nH]c(=O)c1C(F)(F)F)C(=O)N1CCOCC1)c1cnc(-c2ncc(C(F)(F)F)cn2)cn1 (centres unmarked) [Example 90]" reported_value="30 to 100 nM"

* * *

Target: PARP7 (Homo sapiens)
Construct: purchased BPS 80527
Test: PARP7 TR-FRET binding inhibition (displacement of probe RBN011147)
Method: The ability of the compound to substitute the probe RBN011147 (Wigle et al., 2020, Cell Chemical Biology 27, 877-887) was tested by a TR-FRET method, and IC50 was calculated to evaluate the binding ability of the compound to PARP7. […]
pIC50: −log10 of the molar value.
PROPERTY NAME: pIC50

compound="Cc1cc(NC(C)CCCNC(=O)c2cnc(-c3ncc(C(F)(F)F)cn3)cn2)c(C#N)c(=O)[nH]1 (stereo not shown) [Example 35]" assay_target="PARP7 (Homo sapiens)" property_name=pIC50 reported_value="7.00 to 7.52"

* * *

pIC50 values, listed per item
Target: PARP7 (Homo sapiens, UniProt Q7Z3E1)
Construct: purchased BPS 80527
Sequence (Q7Z3E1 1-657): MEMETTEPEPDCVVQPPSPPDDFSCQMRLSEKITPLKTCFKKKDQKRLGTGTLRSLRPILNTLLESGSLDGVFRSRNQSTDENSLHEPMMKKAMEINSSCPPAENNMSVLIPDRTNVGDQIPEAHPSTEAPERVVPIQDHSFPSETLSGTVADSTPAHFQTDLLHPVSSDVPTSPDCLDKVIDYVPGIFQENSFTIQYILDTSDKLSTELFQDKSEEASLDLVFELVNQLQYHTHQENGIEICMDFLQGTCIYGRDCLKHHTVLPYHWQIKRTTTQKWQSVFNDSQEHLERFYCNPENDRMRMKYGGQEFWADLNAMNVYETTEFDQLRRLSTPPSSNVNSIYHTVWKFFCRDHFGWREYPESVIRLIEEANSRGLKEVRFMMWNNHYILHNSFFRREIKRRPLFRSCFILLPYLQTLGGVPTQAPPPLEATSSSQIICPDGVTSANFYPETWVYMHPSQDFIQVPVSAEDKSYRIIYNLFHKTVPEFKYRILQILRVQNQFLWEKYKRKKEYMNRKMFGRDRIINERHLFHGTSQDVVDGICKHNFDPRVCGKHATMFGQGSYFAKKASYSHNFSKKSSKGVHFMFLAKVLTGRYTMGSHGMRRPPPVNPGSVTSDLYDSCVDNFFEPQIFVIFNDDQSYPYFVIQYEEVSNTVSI
Assay: Inhibition of the compound on PARP7 protein activity (ADP-ribosylation, chemiluminescence)
Type: biochemical
Details: Histone H1 coated plate, Biotin-Labeled NAD+, 2 h at room temperature, chemiluminescence; read-out: PARP7 activity inhibition IC50
pIC50: −log10 of the molar value.
PROPERTY NAME: pIC50

compound="CC(CCCNC(=O)c1cnc(-c2ncc(C(F)(F)F)cn2)cn1)Nc1cn[nH]c(=O)c1C(F)(F)F (stereo not shown) [Example 4]" assay_target="PARP7 (Homo sapiens, UniProt Q7Z3E1)" reported_value="> 8.52"
compound="CNC(=O)[C@@H](CCCNC(=O)c1ccc(-c2ncc(C(F)(F)F)s2)cc1)Nc1cn[nH]c(=O)c1C(F)(F)F [Example 229]" assay_target="PARP7 (Homo sapiens, UniProt Q7Z3E1)" reported_value="> 8.52"
compound="CC(CCCNC(=O)c1ccc(-c2ncc(C(F)(F)F)cn2)cc1)Nc1cn[nH]c(=O)c1C(F)(F)F (stereo not shown) [Example 3]" assay_target="PARP7 (Homo sapiens, UniProt Q7Z3E1)" reported_value="> 8.52"
compound="CC(CCCNC(=O)c1ncc(-c2ncc(C(F)(F)F)cn2)s1)Nc1cn[nH]c(=O)c1C(F)(F)F (stereo not shown) [Example 151]" assay_target="PARP7 (Homo sapiens, UniProt Q7Z3E1)" reported_value="8.00 to 8.52"
compound="CC(CCCNC(=O)c1cnc(-c2ncc(C(F)(F)F)cn2)cn1)Nc1cc[nH]c(=O)c1C#N (stereo not shown) [Example 52]" assay_target="PARP7 (Homo sapiens, UniProt Q7Z3E1)" reported_value="7.52 to 8.00"
compound="CC(CCCNC(=O)c1ccc(-c2ncc(N3CCCCC3)s2)cc1)Nc1cn[nH]c(=O)c1C(F)(F)F (stereo not shown) [Example 58]" assay_target="PARP7 (Homo sapiens, UniProt Q7Z3E1)" reported_value="8.00 to 8.52"
compound="CC(CCCNC(=O)c1ccc(-c2cscn2)cc1F)Nc1cn[nH]c(=O)c1C(F)(F)F (stereo not shown) [Example 179]" assay_target="PARP7 (Homo sapiens, UniProt Q7Z3E1)" reported_value="> 8.52"

Values from patent EP4800012A1
